Reported Kd values follow for various binders
Biological target: T1, COPB2_(1-304), N-terminal WD-repeat domain of the COPB2 coatomer subunit (S. cerevisiae, UniProt P41811 1-304)
T1 sequence: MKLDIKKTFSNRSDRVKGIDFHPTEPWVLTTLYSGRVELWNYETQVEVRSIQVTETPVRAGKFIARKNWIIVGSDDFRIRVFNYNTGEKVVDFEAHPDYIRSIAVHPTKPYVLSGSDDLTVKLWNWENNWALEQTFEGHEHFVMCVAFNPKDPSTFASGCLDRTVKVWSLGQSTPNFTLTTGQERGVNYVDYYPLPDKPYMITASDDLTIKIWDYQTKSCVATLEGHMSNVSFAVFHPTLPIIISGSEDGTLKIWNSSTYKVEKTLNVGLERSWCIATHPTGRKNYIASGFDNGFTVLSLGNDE
Experiment: ITC
Property label: Kd

• PVRASRNKRPTFLKIKKP [Exosome Binding Peptide (EBP) of Wnt7a, 18 aa polypeptide (240-257)] = 11.6 µM
• LKIKKP [Wnt_(252-257) peptide (LKIKKP), C-terminal half of the EBP] = 37.2 µM

// provenance: paper doi:10.1101/2023.05.30.542914
